# System: OVCAR-8
# Assay Info: NCI tumour cell line growth inhibition, 48 h
Active and inactive are the calls of the source. No stated cut-off is given here; in the data, active = GI50 up to about 1.1 µM and inactive = higher.
Entries and their GI50 values follow.

>  <Compound>
COC(=O)[C@@H]1CN(C(=O)Cc2ccccc2)C(=O)N1

>  <Target Or System>
OVCAR-8

>  <GI50>
> 100 µM (inactive)

$$$$

What GI50 value was documented for this compound, Nc1ccc(C(=O)CC(N)C(=O)O)cc1O (stereo not given) ?
> 100 µM (inactive)

Ok, now CS(=O)(=O)OCCN(CCOS(C)(=O)=O)c1ccc(/C=N/c2ccc3oc(=O)ccc3c2)cc1
6.97 µM (inactive)

Item: CC(=O)O[C@H]1CC[C@]2(C=O)[C@H]3CC[C@]4(C)[C@@H](C5=CC(=O)OC5)CC[C@]4(O)[C@@H]3CC[C@]2(O)C1 [STROPHANTHIDIN ACETATE]
0.267 µM (active)

One more compound: Fc1ccc(/C=C2\COCC3=C2NC(=S)NC3c2ccc(F)cc2)cc1 (stereo not given)
15.2 µM (inactive)

Another compound: COc1ccc2c(c1)-c1nn(CCN(C)C)c3ccc(C(=O)NCCCN(C)CCCNC(=O)c4ccc5c6c(c7cc(OC)ccc7nc46)NN5CCN(C)C)c(c13)N2
0.0133 µM (active)

Another compound to look at: COc1cc(/C=C2\S/C(=N/Nc3nc(-c4ccc(Br)cc4)cs3)NC2=O)cc(OC)c1OC
14.5 µM (inactive)

Do the same for C=C(C)[C@@H]1CC[C@]2(COC(C)=O)CC[C@]3(C)[C@H](CC[C@@H]4[C@@]5(C)CC[C@H](OC(C)=O)C(C)(C)[C@@H]5CC[C@]43C)[C@@H]12 [BETULIN DIACETATE] please
> 50 µM (inactive)

Also C#CCN(N=O)C(=O)ON1C(=O)CCC1=O , if possible.
> 100 µM (inactive)

Cn1c(COC(=O)NC2CCCCC2)c(COC(=O)NC2CCCCC2)c2ccc3cc(C=O)ccc3c21 , same question.
> 100 µM (inactive)

What do you have for COc1cc2c(cc1OCCCN1CCN(C)CC1)N=C[C@@H]1CCCN1C2=O ?
2.58 µM (inactive)

// repeat for CCOC(=O)C(C(C)=O)C1CC=CC1 (stereo not given) and report
> 100 µM (inactive)

Also, O=C(OCc1ccccc1)n1cccc1 please.
> 100 µM (inactive)
